Test system: HCC-2998 colon
Experiment: NCI tumour cell line growth inhibition, 48 h
Measured metric: TGI

Q: For the molecule CC1=NN(c2ccccc2)C(=O)/C1=C\c1ccc([N+](=O)[O-])cc1 , give its measured TGI value.
Result: 63.2 µM

Q: For the molecule Cc1ccncc1C(N)=O , give its measured TGI value.
Result: > 100 µM

Q: For the molecule Cc1cc(C)c(C2CNCc3cc4c(cc32)CNCC4c2c(C)cc(C)cc2C)c(C)c1 (stereo unspecified) , give its measured TGI value.
Result: 3.85 mg/L

Q: For the molecule CN1CCc2nc3sc(C(N)=O)c(N)c3c(-c3cccs3)c2C1 , give its measured TGI value.
Result: 20.9 µM

Q: For the molecule Oc1cc(-n2cccn2)c(O)cc1-n1cccn1 , give its measured TGI value.
Result: > 100 µM

Q: For the molecule CN(CCCNC(=O)c1cc(-c2ccccc2)nc2ccccc12)CCCNC(=O)c1cc(-c2ccccc2)nc2ccccc12 , give its measured TGI value.
Result: 3.36 µM

Q: For the molecule O=[N+]([O-])c1ccc(C(O)(C#CCN2CCCC2)c2ccccc2)cc1 (stereo unspecified) , give its measured TGI value.
Result: 35.8 µM

Q: For the molecule COC(=O)Cc1c(-c2c(CC(=O)OC)c3ccccc3n2C2OC(COC(C)=O)C(OC(C)=O)C(OC(C)=O)C2OC(C)=O)[nH]c2ccccc12 (stereo unspecified) , give its measured TGI value.
Result: > 100 µM

Q: For the molecule CC1C=CC(OC(=O)C(C)(O)CCC(O)(C(=O)OC2CC(O)C(C(C)C)CC2(C)O)C(C)C)(C(C)C)CC1 (stereo unspecified) , give its measured TGI value.
Result: 8.91 µM

Q: For the molecule Cc1ccccc1C(=O)C1CCCCC1O (stereo unspecified) , give its measured TGI value.
Result: > 100 µM

Q: For the molecule CC(C)(C)c1cc2nc(c1)C(C(F)(F)F)(C(F)(F)F)OB(Br)OC2(C(F)(F)F)C(F)(F)F , give its measured TGI value.
Result: 11.4 µM

Q: For the molecule O=C(O)c1ccccc1NC(=S)c1ccccc1 , give its measured TGI value.
Result: 0.0159 µM

Q: For the molecule CC(C)(CCC(C)(C)N1OC1c1ccccc1)N1OC1c1ccccc1 (stereo unspecified) , give its measured TGI value.
Result: > 100 µM

Q: For the molecule O=C1C(OCCOc2ccccc2)=C(OCCOc2ccccc2)C(=O)c2ccccc21 , give its measured TGI value.
Result: > 100 µM

Q: For the molecule COc1ccc(CNc2cc(=O)n(C)c(=O)[nH]2)cc1 , give its measured TGI value.
Result: > 100 µM

Q: For the molecule C1CSCCSCCCSCCSCCCSCCSCCCSCCSC1 , give its measured TGI value.
Result: > 100 µM

Q: For the molecule Cc1cc(NS(=O)(=O)c2ccc(NC(=O)c3cccc4c(Nc5ccc(S(N)(=O)=O)cc5)c5ccccc5nc34)cc2)no1 , give its measured TGI value.
Result: > 100 µM

Q: For the molecule CCCc1[nH]c2ccccc2c1-c1c(CCC)[nH]c2ccccc12 , give its measured TGI value.
Result: 42.1 µM

Q: For the molecule CC1=C(C(=O)Nc2ccc(Cl)c(Cl)c2)C(c2ccc([N+](=O)[O-])cc2)C(C(=O)Nc2ccc(Cl)c(Cl)c2)=C(C)N1 , give its measured TGI value.
Result: 4.98 µM

Q: For the molecule CC(C)(C)NC(=O)CCC1C(C(=O)NC(C)(C)C)C2(Cl)C(Cl)=C(Cl)C1(Cl)C2(Cl)Cl (stereo unspecified) , give its measured TGI value.
Result: > 100 µM

Q: For the molecule Nc1nc(N)c(CCCCc2ccccc2)c(N)n1 , give its measured TGI value.
Result: > 100 µM

Q: For the molecule NNc1nnc(-c2nnc(NN)o2)o1 , give its measured TGI value.
Result: > 10 µM

Q: For the molecule N#CC1(C#N)C(c2ccccc2)C=CC12OCCCO2 (stereo unspecified) , give its measured TGI value.
Result: > 100 µM

Q: For the molecule O=C1c2ccccc2N2OC3(N4CCCC4)CCCCC3C12c1ccccc1 (stereo unspecified) , give its measured TGI value.
Result: > 100 µM

Q: For the molecule N#Cc1nc(C#N)n(S(=O)(=O)c2ccccc2)c1NS(=O)(=O)c1ccccc1 , give its measured TGI value.
Result: > 100 µM

Q: For the molecule N[C@H](COCc1ccccc1)c1ccccc1 , give its measured TGI value.
Result: > 91.7 µM

Q: For the molecule N#CCN1C(=O)c2cc([N+](=O)[O-])cc3cc([N+](=O)[O-])cc(c23)C1=O , give its measured TGI value.
Result: 29.2 µM

Q: For the molecule C[C@@H]1Cc2cc(O)ccc2[C@H]2CC[C@]3(C)/C(=C/COCCN(C)C)CC[C@H]3[C@H]12 (tested in a mixture with another compound) , give its measured TGI value.
Result: 1.65 µM

Q: For the molecule O=C1c2c(Br)sc(Br)c2[C@@H](NC(=O)C(F)(F)F)C1Br (stereo partly specified) , give its measured TGI value.
Result: 7.8 µM

Q: For the molecule CC(=O)O[C@H]1CC[C@@]2(C)C(=CC[C@@H]3[C@@H]2CC[C@]2(C)c4nc(Cl)ccc4C[C@@H]32)C1 , give its measured TGI value.
Result: > 100 µM

Q: For the molecule COc1ccc2c(-c3ccnc(Nc4cccc(OC(F)(F)F)c4)n3)cnn2n1 , give its measured TGI value.
Result: 8.82 µM

Q: For the molecule COc1ccc(NC(=O)C(=O)/C=C(\O)c2ccccc2)cc1 , give its measured TGI value.
Result: > 10 µM

Q: For the molecule O=Cc1ccc2c(c1I)OCO2 , give its measured TGI value.
Result: > 100 µM

Q: For the molecule O=C(O)CCNS(=O)(=O)c1ccc([N+](=O)[O-])cc1 , give its measured TGI value.
Result: > 100 µM

Q: For the molecule O=Nc1c(-c2c(O)[nH]c3ncccc23)[nH]c2ccccc12 , give its measured TGI value.
Result: > 100 µM

Q: For the molecule COc1cc(Oc2nc3ccc(C(F)(F)F)cc3nc2-c2ccccc2)cc(OC)c1OC , give its measured TGI value.
Result: > 100 µM

Q: For the molecule CC1(C)CC(=O)c2c(nc3c4c([nH]c(-c5ccc(Br)cc5)c24)CC(C)(C)C3)C1 , give its measured TGI value.
Result: > 100 µM

Q: For the molecule O=C(NCCNCCO)c1cccc2ccc(-c3ccccc3)nc12 , give its measured TGI value.
Result: 17.1 µM

Q: For the molecule COC(=O)C(Cc1c[nH]c2ccccc12)N=C1Nc2ccncc2S(=O)(=O)N1c1cccc(OC(C)C)c1 (stereo unspecified) , give its measured TGI value.
Result: > 100 µM

Q: For the molecule O=C1OC(=O)c2c1c(-c1ccccc1)nc1ccccc21 , give its measured TGI value.
Result: > 100 µM

Q: For the molecule CC1c2ccccc2CCN1c1ccc(CO)c(Cl)c1 (stereo unspecified) , give its measured TGI value.
Result: 17.6 µM

Every entry's value here was drawn from PubChem BioAssay (NCI).
